Reference for the values: ChEMBL document CHEMBL4411324

Some compounds, each annotated with its measured pIC50.
# subject-of-test: Receptor-type tyrosine-protein kinase FLT3 (Homo sapiens, UniProt P36888, ITD)
# Sequence (P36888 whole entry, looked up, stated change not applied, the tested form may be a part): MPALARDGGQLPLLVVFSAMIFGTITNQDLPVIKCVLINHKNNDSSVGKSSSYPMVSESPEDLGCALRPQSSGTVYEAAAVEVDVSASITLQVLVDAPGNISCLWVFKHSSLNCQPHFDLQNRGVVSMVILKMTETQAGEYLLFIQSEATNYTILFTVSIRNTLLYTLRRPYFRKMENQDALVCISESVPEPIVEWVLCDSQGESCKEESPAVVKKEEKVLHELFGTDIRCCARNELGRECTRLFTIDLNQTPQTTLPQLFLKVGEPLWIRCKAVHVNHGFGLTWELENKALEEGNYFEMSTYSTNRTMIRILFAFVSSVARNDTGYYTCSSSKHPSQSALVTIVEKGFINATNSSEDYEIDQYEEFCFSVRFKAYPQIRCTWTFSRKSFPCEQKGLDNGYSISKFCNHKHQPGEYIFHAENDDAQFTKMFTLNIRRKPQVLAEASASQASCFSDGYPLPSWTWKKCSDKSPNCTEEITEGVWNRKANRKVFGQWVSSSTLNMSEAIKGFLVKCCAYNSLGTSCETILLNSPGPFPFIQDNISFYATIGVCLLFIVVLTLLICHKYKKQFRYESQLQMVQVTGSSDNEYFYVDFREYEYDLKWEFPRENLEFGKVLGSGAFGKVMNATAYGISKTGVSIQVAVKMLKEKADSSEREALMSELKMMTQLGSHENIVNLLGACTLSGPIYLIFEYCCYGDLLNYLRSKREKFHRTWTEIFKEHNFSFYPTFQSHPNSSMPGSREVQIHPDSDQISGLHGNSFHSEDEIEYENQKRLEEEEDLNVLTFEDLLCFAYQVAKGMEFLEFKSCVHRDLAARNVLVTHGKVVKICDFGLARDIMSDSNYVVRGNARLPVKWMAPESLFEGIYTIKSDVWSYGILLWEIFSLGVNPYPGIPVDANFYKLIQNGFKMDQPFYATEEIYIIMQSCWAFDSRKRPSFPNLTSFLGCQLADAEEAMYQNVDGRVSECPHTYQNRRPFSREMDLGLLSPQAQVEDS
# experiment: Inhibition of recombinant human N-terminal GST/His6-fused FLT3 ITD mutant (R571 to S993 residues) expressed in Sf9 insect cells assessed as residual activity using ULightTM-TK peptide as substrate incubated for 90 mins under dark condition by FRET assay
Remember the convention: pIC50 equals -log10 of concentration in molar.

>  <structure-smiles-string>
O=S(=O)(NCCNCCc1ccc(-c2cccnc2)cc1)c1cccc2cnccc12

>  <pIC50>
6.57

$$$$
>  <structure-smiles-string>
Cc1ccc(S(=O)(=O)NCCNCCCc2ccc(-c3cnc4[nH]ccc4c3)cc2)cc1

>  <pIC50>
8.69

$$$$
>  <structure-smiles-string>
CN(CCNC/C=C/c1ccc(-c2cccnc2)cc1)S(=O)(=O)c1cccc2cnccc12

>  <pIC50>
6.74

$$$$

Now for another entry.
Return reported pIC50; argument: `O=C(CCc1ccc(-c2cnc3[nH]ccc3c2)cc1)NCCNS(=O)(=O)c1ccc(Cl)cc1` 8.62
